Target: recombinant rat L-type calcium channel (LTCC) subunits (α1c, α2δ, and β1) (Rattus norvegicus, UniProt P22002)
Sequence (P22002 whole entry): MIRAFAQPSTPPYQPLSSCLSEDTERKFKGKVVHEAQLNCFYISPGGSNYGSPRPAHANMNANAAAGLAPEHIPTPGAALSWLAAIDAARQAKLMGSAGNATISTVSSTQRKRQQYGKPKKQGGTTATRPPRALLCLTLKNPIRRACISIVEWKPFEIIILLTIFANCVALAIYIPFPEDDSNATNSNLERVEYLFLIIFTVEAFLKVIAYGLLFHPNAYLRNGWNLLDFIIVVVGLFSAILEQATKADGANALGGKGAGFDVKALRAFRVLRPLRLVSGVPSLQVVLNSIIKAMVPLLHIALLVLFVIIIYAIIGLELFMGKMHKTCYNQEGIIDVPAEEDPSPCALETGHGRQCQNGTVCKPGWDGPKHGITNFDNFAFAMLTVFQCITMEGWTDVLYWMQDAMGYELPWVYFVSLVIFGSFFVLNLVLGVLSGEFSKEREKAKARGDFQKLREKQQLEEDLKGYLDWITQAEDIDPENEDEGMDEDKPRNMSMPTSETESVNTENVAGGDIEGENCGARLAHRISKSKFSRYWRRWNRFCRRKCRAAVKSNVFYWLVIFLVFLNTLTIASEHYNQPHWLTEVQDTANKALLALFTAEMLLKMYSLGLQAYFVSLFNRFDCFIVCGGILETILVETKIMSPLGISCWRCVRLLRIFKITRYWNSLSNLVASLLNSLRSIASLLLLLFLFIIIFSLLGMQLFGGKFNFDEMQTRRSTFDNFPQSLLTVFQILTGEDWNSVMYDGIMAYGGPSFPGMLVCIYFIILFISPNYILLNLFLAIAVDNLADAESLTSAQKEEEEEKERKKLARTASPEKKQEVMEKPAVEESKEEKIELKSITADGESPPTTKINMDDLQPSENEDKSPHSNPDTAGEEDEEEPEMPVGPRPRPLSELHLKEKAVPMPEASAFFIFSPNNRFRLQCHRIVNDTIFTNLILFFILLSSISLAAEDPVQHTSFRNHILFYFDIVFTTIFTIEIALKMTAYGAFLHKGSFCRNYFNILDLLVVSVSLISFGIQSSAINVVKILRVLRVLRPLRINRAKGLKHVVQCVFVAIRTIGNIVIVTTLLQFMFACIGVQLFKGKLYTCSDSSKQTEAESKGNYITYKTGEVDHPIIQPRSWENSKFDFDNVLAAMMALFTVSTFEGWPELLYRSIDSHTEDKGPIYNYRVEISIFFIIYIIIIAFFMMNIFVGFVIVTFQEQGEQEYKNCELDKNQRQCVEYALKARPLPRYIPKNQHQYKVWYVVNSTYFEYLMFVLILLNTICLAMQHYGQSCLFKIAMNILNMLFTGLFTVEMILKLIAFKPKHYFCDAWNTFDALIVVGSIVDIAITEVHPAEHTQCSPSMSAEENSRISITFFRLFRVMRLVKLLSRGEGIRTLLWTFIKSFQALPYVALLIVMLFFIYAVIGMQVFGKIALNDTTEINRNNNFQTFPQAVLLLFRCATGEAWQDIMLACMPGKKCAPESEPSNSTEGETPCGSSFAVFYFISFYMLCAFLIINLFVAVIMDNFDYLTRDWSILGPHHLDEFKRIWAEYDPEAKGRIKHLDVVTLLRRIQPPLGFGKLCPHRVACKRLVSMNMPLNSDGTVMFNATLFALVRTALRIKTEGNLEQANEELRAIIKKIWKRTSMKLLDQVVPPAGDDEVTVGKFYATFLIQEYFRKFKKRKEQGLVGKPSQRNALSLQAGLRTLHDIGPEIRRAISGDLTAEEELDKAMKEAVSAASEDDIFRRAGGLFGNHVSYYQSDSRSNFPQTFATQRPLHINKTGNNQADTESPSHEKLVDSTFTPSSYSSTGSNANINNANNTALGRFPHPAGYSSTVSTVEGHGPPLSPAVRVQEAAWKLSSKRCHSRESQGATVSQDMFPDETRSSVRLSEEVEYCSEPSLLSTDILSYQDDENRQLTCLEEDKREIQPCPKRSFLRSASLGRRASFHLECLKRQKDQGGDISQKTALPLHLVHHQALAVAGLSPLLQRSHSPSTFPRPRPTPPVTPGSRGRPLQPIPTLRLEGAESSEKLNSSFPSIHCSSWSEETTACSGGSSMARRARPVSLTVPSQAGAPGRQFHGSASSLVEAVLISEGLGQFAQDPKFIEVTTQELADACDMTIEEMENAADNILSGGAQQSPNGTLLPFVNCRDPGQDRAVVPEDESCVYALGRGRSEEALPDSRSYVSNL
Sequence (P54290 25-944 partner limits assumed): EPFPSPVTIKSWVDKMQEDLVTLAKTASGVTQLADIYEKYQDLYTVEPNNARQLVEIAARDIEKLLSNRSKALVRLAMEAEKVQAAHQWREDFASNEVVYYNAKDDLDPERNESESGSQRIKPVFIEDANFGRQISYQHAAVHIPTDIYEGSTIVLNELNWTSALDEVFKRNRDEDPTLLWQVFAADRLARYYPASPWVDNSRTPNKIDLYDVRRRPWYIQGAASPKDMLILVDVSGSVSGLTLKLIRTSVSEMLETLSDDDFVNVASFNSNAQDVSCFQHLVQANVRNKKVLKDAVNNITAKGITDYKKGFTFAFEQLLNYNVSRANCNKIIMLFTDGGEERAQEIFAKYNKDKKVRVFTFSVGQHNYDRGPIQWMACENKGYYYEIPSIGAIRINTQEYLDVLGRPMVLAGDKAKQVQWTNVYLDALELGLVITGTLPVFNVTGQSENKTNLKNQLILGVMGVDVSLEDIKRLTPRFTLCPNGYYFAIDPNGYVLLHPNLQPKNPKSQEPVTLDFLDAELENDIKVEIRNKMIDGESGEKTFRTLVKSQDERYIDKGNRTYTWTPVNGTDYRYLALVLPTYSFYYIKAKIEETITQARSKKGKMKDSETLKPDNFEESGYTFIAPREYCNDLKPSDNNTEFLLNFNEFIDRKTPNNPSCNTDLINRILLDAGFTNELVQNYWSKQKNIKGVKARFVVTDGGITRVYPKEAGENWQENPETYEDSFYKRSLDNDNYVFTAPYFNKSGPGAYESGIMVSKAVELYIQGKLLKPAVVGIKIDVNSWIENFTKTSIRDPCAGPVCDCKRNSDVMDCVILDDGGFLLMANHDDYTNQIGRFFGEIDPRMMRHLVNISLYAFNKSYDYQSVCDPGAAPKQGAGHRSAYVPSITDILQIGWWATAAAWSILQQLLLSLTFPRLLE
Sequence (P54290 945-1091 partner limits assumed): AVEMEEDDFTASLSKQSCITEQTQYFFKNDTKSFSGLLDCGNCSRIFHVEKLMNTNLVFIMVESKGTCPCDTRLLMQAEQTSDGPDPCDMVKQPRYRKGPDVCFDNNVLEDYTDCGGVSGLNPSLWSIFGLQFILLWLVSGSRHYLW
Sequence (P54283 whole entry partner): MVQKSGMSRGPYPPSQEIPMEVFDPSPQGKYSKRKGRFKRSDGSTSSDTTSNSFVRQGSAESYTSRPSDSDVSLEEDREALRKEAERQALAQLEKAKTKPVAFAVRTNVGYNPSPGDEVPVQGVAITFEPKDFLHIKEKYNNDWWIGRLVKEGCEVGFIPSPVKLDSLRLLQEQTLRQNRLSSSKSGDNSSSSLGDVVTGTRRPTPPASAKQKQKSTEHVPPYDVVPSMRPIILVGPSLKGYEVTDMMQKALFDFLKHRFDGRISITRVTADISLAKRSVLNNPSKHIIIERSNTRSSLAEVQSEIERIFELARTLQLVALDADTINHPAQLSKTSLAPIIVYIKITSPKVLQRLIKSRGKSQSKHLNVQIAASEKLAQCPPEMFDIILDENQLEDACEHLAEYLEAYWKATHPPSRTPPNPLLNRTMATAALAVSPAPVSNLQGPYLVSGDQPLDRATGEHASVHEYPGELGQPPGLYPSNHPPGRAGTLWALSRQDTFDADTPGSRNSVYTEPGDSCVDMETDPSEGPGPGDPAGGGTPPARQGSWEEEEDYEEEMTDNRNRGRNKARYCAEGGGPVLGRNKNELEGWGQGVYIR
Test: FLIPR calcium mobilization assay for L-type calcium channel
Conditions: calcium mobilization in vitro assay; HEK293 cells expressing rat LTCC
Description: Recombinant human embryonal kidney cells (HEK293, ATCC) stably transfected with either N-type calcium channel (NTCC) subunits (α1b, α2δ, and ⊖3) or L-type calcium channel (LTCC) subunits (α1, α2δ, and β1) were routinely cultured in growth medium consisting of Dulbecco's Modified Eagles Medium containing 10% FBS, 100 U/mL penicillin, 100 μg/mL streptomycin, 4 mM L-glutamine, 500 μg/mL geneticin (G418), 20 μg/mL Blasticidin S (InVivogen, San Diego, Calif.) and 500 μg/mL zeocin (InVivogen). […]
pIC50: −log10 of the molar value.
parameter: pIC50

Study these solved cases before continuing.
compound | pIC50
O=C(CN1CCC(N(C2CC2)S(=O)(=O)c2cccc(C(F)(F)F)c2)CC1)Nc1ccc(F)c(C(F)(F)F)c1 | < 4.70
CC(C)N(C1CCN(CC(=O)Nc2ccc(OC(F)(F)F)cc2)CC1)S(=O)(=O)c1cccc(C(F)(F)F)c1 [Compound 42l] | < 4.70
CC(C)N(C1CCN(C(=O)CNCc2ccccc2)CC1)S(=O)(=O)c1cccc(C(F)(F)F)c1 | 4.70 to 5.00

Proceed to the following item.
Look at this compound and give its reported pIC50. CC(C)N(C1CCN(CC(=O)Nc2nc3ccc(F)cc3s2)CC1)S(=O)(=O)c1cccc(C(F)(F)F)c1 [Compound 42i]
< 4.70

Source listed as patent US8791264B2.
